Please provide measured half-life at 0.5 µM for the entries that follow.
test: Half life in human liver microsomes at 0.5 uM by LC-MS/MS analysis in presence of NADPH; assay type: ADME
Write the value in h as a bare number.

Inquiry: Which half-life at 0.5 µM is listed for "C=C(C)[C@@H]1CC[C@]2(CO)CC[C@]3(C)[C@H](CC[C@@H]4[C@@]5(C)CC=C(c6ccc(C(=O)O)cc6)C(C)(C)[C@@H]5CC[C@]43C)[C@@H]12" ?
Reply text: 2

Inquiry: Which half-life at 0.5 µM is listed for "C=C(C)[C@@H]1CC[C@]2(C(=O)O)CC[C@]3(C)[C@H](CC[C@@H]4[C@@]5(C)CC=C(c6ccc(C(=O)O)cc6)C(C)(C)[C@@H]5CC[C@]43C)[C@@H]12" ?
Reply text: 2

###

assay: Cmax in rat at 5 mg/kg, po by LC-MS/MS; format: ADME, organism-based; parameters: dose 5 mg/kg, route oral; settings: in vivo
Please provide measured Cmax for the entries that follow.
Write the value in nM as a bare number.

Inquiry: Which Cmax is listed for "C=C(C)[C@@H]1CC[C@]2(CO)CC[C@]3(C)[C@H](CC[C@@H]4[C@@]5(C)CC=C(c6ccc(C(=O)O)cc6)C(C)(C)[C@@H]5CC[C@]43C)[C@@H]12" ?
Reply text: 590

Inquiry: Which Cmax is listed for "C=C(C)[C@@H]1CC[C@]2(C(=O)O)CC[C@]3(C)[C@H](CC[C@@H]4[C@@]5(C)CC[C@H](OC(=O)CC(C)(C)C(=O)O)C(C)(C)[C@@H]5CC[C@]43C)[C@@H]12" ?
Reply text: 2590

Inquiry: Which Cmax is listed for "C=C(C)[C@@H]1CC[C@]2(C(=O)O)CC[C@]3(C)[C@H](CC[C@@H]4[C@@]5(C)CC=C(c6ccc(C(=O)O)cc6)C(C)(C)[C@@H]5CC[C@]43C)[C@@H]12" ?
Reply text: 1310

###

test system: Human immunodeficiency virus 1; test: Antiviral activity against wild type HIV1 NLRepRlucP373S infected in human MT2 cells after 4 to 5 days in presence of 27 mg/ml HSA by luciferase report gene based multiple cycle drug susceptibility assay; assay type: functional, organism-based; settings: Human immunodeficiency virus 1, NLRepRlucP373S
Readout label: EC50 (nM)
Write the value in nM as a bare number.

Inquiry: Which EC50 is listed for "C=C(C)[C@@H]1CC[C@]2(C(=O)O)CC[C@]3(C)[C@H](CC[C@@H]4[C@@]5(C)CC=C(c6ccc(C(=O)O)cc6)C(C)(C)[C@@H]5CC[C@]43C)[C@@H]12" ?
Reply text: 310

###

assay: Oral bioavailability in rat at 5 mg/kg by LC-MS/MS; assay type: ADME, organism-based; details: in vivo
Please provide measured bioavailability for the entries that follow.
Write the value in % as a bare number.

Inquiry: Which bioavailability is listed for "C=C(C)[C@@H]1CC[C@]2(CO)CC[C@]3(C)[C@H](CC[C@@H]4[C@@]5(C)CC=C(c6ccc(C(=O)O)cc6)C(C)(C)[C@@H]5CC[C@]43C)[C@@H]12" ?
Reply text: 4

Inquiry: Which bioavailability is listed for "C=C(C)[C@@H]1CC[C@]2(C(=O)O)CC[C@]3(C)[C@H](CC[C@@H]4[C@@]5(C)CC=C(c6ccc(C(=O)O)cc6)C(C)(C)[C@@H]5CC[C@]43C)[C@@H]12" ?
Reply text: 4

Inquiry: Which bioavailability is listed for C=C(C)[C@@H]1CC[C@]2(C(=O)O)CC[C@]3(C)[C@H](CC[C@@H]4[C@@]5(C)CC[C@H](OC(=O)CC(C)(C)C(=O)O)C(C)(C)[C@@H]5CC[C@]43C)[C@@H]12 [BEVIRIMAT] ?
Reply text: 18

###

assay: Cytotoxicity against human MT2 cells assessed as cell viability by redox dye assay; format: cell-based
Readout label: CC50 (µM)
Write the value in µM as a bare number.

Inquiry: Which CC50 is listed for "C=C(C)[C@@H]1CC[C@]2(C(=O)O)CC[C@]3(C)[C@H](CC[C@@H]4[C@@]5(C)CC=C(c6cccc(NS(C)(=O)=O)c6)C(C)(C)[C@@H]5CC[C@]43C)[C@@H]12" ?
Reply text: 12.7

Inquiry: Which CC50 is listed for "C=C(C)[C@@H]1CC[C@]2(CO)CC[C@]3(C)[C@H](CC[C@@H]4[C@@]5(C)CC=C(c6ccc([N+](=O)[O-])cc6)C(C)(C)[C@@H]5CC[C@]43C)[C@@H]12" ?
Reply text: 20

Inquiry: Which CC50 is listed for "C=C(C)[C@@H]1CC[C@]2(C(=O)O)CC[C@]3(C)[C@H](CC[C@@H]4[C@@]5(C)CC=C(c6ccc(C(=O)NS(=O)(=O)C(C)C)cc6)C(C)(C)[C@@H]5CC[C@]43C)[C@@H]12" ?
Reply text: 8.68

Inquiry: Which CC50 is listed for "C=C(C)[C@@H]1CC[C@]2(C(=O)O)CC[C@]3(C)[C@H](CC[C@@H]4[C@@]5(C)CC=C(c6ccc(C(=O)O)cc6)C(C)(C)[C@@H]5CC[C@]43C)[C@@H]12" ?
Reply text: 27.2

Inquiry: Which CC50 is listed for "C=C(C)[C@@H]1CC[C@]2(CO)CC[C@]3(C)[C@H](CC[C@@H]4[C@@]5(C)CC=C(c6ccc(-c7nn[nH]n7)cc6)C(C)(C)[C@@H]5CC[C@]43C)[C@@H]12" ?
Reply text: 34.3

Inquiry: Which CC50 is listed for "C=C(C)[C@@H]1CC[C@]2(CO)CC[C@]3(C)[C@H](CC[C@@H]4[C@@]5(C)CC=C(c6ccc(C(=O)O)c(Cl)c6)C(C)(C)[C@@H]5CC[C@]43C)[C@@H]12" ?
Reply text: 1.97

Inquiry: Which CC50 is listed for "C=C(C)[C@@H]1CC[C@]2(C(=O)O)CC[C@]3(C)[C@H](CC[C@@H]4[C@@]5(C)CC=C(c6ccc(CCC(=O)O)cc6)C(C)(C)[C@@H]5CC[C@]43C)[C@@H]12" ?
Reply text: 6.55

Inquiry: Which CC50 is listed for "C=C(C)[C@@H]1CC[C@]2(C(=O)O)CC[C@]3(C)[C@H](CC[C@@H]4[C@@]5(C)CC=C(c6ccc(C(=O)O)c(F)c6)C(C)(C)[C@@H]5CC[C@]43C)[C@@H]12" ?
Reply text: 10.1

Inquiry: Which CC50 is listed for "C=C(C)[C@@H]1CC[C@]2(CO)CC[C@]3(C)[C@H](CC[C@@H]4[C@@]5(C)CC=C(c6ccc(C(=O)O)cc6F)C(C)(C)[C@@H]5CC[C@]43C)[C@@H]12" ?
Reply text: 16.5

###

experiment: Tmax in rat at 5 mg/kg, po by LC-MS/MS; assay type: ADME, organism-based; conditions: in vivo
Please provide measured Tmax for the entries that follow.
Write the value in h as a bare number.

Inquiry: Which Tmax is listed for "C=C(C)[C@@H]1CC[C@]2(CO)CC[C@]3(C)[C@H](CC[C@@H]4[C@@]5(C)CC=C(c6ccc(C(=O)O)cc6)C(C)(C)[C@@H]5CC[C@]43C)[C@@H]12" ?
Reply text: 5

Inquiry: Which Tmax is listed for "C=C(C)[C@@H]1CC[C@]2(C(=O)O)CC[C@]3(C)[C@H](CC[C@@H]4[C@@]5(C)CC=C(c6ccc(C(=O)O)cc6)C(C)(C)[C@@H]5CC[C@]43C)[C@@H]12" ?
Reply text: 4

Inquiry: Which Tmax is listed for "C=C(C)[C@@H]1CC[C@]2(C(=O)O)CC[C@]3(C)[C@H](CC[C@@H]4[C@@]5(C)CC[C@H](OC(=O)CC(C)(C)C(=O)O)C(C)(C)[C@@H]5CC[C@]43C)[C@@H]12" ?
Reply text: 0.3

###

assay: Cytotoxicity against human MT2 cells assessed as cell viability by redox dye assay; type: cell-based
Readout label: CC50 (µM)
Write the value in µM as a bare number.

Inquiry: Which CC50 is listed for "C=C(C)[C@@H]1CC[C@]2(C(=O)O)CC[C@]3(C)[C@H](CC[C@@H]4[C@@]5(C)CC=C(c6ccccc6CCC(=O)O)C(C)(C)[C@@H]5CC[C@]43C)[C@@H]12" ?
Reply text: 5.03

Inquiry: Which CC50 is listed for "C=C(C)[C@@H]1CC[C@]2(C(=O)O)CC[C@]3(C)[C@H](CC[C@@H]4[C@@]5(C)CC=C(c6cccc(CCC(=O)O)c6)C(C)(C)[C@@H]5CC[C@]43C)[C@@H]12" ?
Reply text: 1.83

Inquiry: Which CC50 is listed for "C=C(C)[C@@H]1CC[C@]2(C(=O)O)CC[C@]3(C)[C@H](CC[C@@H]4[C@@]5(C)CC=C(c6ccc(C(=O)O)c(Cl)c6)C(C)(C)[C@@H]5CC[C@]43C)[C@@H]12" ?
Reply text: 3.08

Inquiry: Which CC50 is listed for "C=C(C)[C@@H]1CC[C@]2(C(=O)O)CC[C@]3(C)[C@H](CC[C@@H]4[C@@]5(C)CC=C(c6ccc(-c7cnc8ccccc8c7C(=O)O)cc6)C(C)(C)[C@@H]5CC[C@]43C)[C@@H]12" ?
Reply text: 15.9

Inquiry: Which CC50 is listed for "C=C(C)[C@@H]1CC[C@]2(C(=O)O)CC[C@]3(C)[C@H](CC[C@@H]4[C@@]5(C)CC=C(c6ccc(C#N)cc6)C(C)(C)[C@@H]5CC[C@]43C)[C@@H]12" ?
Reply text: 4.45

Inquiry: Which CC50 is listed for "C=C(C)[C@@H]1CC[C@]2(CO)CC[C@]3(C)[C@H](CC[C@@H]4[C@@]5(C)CC=C(c6ccc(C(=O)O)cc6C)C(C)(C)[C@@H]5CC[C@]43C)[C@@H]12" ?
Reply text: 7.02

Inquiry: Which CC50 is listed for "C=C(C)[C@@H]1CC[C@]2(CO)CC[C@]3(C)[C@H](CC[C@@H]4[C@@]5(C)CC=C(c6ccc(NS(C)(=O)=O)cc6)C(C)(C)[C@@H]5CC[C@]43C)[C@@H]12" ?
Reply text: 8.82

Inquiry: Which CC50 is listed for "C=C(C)[C@@H]1CC[C@]2(CO)CC[C@]3(C)[C@H](CC[C@@H]4[C@@]5(C)CC=C(c6ccc(C(=O)O)c(O)c6)C(C)(C)[C@@H]5CC[C@]43C)[C@@H]12" ?
Reply text: 9.76
